Cited source for all entries: paper PMC5540273

Item-by-item account of %Inh
Tested on: ANKK1;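 further: KINOMEscan kinase panel screen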
Settings: concentration: 1 μM, replicates: in singlicate; n = 1
The answer is to be given in %; state only the numeric part.

Solved cases (5 shown):
{"columns": ["COMPOUND", "%Inh, %"],
 "data": [
  ["Nc1nc(-c2nccs2)c(-c2ccnc3ccccc23)s1", 6],
  ["Cc1c(O)cccc1Nc1ccnc2ccc(C(F)(F)F)cc12.Cl", 0],
  ["COc1cc2ncn(-c3cc(OCC4CCCO4)c(C(N)=O)s3)c2cc1OC (stereo not shown)", 0],
  ["Cc1cccc(-c2nc(Nc3ccncc3)c3ccccc3n2)n1", 0],
  ["O=S(=O)(c1ccc(-c2ccnc3[nH]ccc23)cc1)N1CCCC1", 0]
]}

Now for a further compound.
Retrieve %Inh measured for COc1cc(Nc2nccc(N3CCC(NC(=O)Nc4cc(C)ccc4C)C3)n2)cc(OC)c1OC (stereo not shown) and print it.
13
